- TARGET ENTITY: Indoleamine 2,3-dioxygenase 1 (Homo sapiens)
- ASSAY PROTOCOL: Inhibition of IDO in human HeLa cells after 24 hrs by spectrophotometry
# key: entry, value: pEC50
Quick note: pEC50 means taking -log10 of the concentration in moles per liter.

Answered examples (3):
{"columns": ["CHEM SMILES", "VALUE MEASURED"],
 "data": [
  ["CC(=O)Nc1ccc(S(=O)(=O)NNc2ccc(C(F)(F)F)cc2)cc1", 6.74],
  ["O=C(O)CCc1ccc(S(=O)(=O)NNc2ccc(Br)cc2)cc1", 6.74],
  ["COc1ccc(S(=O)(=O)NNc2ccc(Br)cc2)cc1", 6.19]
]}

Prompt: Determine reported pEC50 for CC(=O)Nc1ccc(S(=O)(=O)NNc2ccc(C#N)cc2)cc1 ; test system: Indoleamine 2,3-dioxygenase 1 (Homo sapiens).
Response: 5.86

Prompt: Lab note: record pEC50 of CC(=O)Nc1ccc(S(=O)(=O)NNc2cccc(C)c2)cc1 tested on Indoleamine 2,3-dioxygenase 1 (Homo sapiens).
Response: 6.62

Prompt: Look up Indoleamine 2,3-dioxygenase 1 (Homo sapiens) data: pEC50 of Cc1cccc(NNS(=O)(=O)c2ccc(C#N)cc2)c1 , then report it.
Response: 5.47

----------
Entries and their pEC50
- TARGET ENTITY: Indoleamine 2,3-dioxygenase 1 (Homo sapiens, UniProt P14902)
- Sequence (P14902 whole entry): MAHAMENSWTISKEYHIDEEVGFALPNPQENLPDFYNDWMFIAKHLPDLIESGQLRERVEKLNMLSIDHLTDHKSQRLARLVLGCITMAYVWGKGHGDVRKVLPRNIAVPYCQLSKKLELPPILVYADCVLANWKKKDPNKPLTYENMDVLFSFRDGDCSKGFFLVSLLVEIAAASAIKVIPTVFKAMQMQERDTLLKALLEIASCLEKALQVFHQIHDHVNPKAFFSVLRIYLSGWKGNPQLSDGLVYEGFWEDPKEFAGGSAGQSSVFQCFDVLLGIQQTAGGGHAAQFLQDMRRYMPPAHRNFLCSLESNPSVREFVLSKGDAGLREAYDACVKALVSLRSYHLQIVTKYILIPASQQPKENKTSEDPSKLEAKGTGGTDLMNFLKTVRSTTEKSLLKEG
- ASSAY PROTOCOL: Inhibition of IDO in human HeLa cells after 24 hrs by spectrophotometry
In textbook form, pEC50 equals minus log to base ten of the concentration in mol/L.

Consider the worked cases shown below.
{"columns": ["CHEM SMILES", "TARGET ENTITY", "VALUE MEASURED"],
 "data": [
  ["COC(=O)CCc1ccc(S(=O)(=O)NNc2ccc(Br)cc2)cc1", "Indoleamine 2,3-dioxygenase 1 (Homo sapiens, UniProt P14902)", 6.33],
  ["CCCC(=O)Nc1ccc(S(=O)(=O)NNc2ccc(Br)cc2)cc1", "Indoleamine 2,3-dioxygenase 1 (Homo sapiens, UniProt P14902)", 6.73]
]}

Prompt: // fetch pEC50 for CC(=O)Nc1ccc(S(=O)(=O)NNc2ccc(F)c(Cl)c2)cc1 ; system: Indoleamine 2,3-dioxygenase 1 (Homo sapiens, UniProt P14902)
Response: 5.59

Prompt: Enter pEC50 (test system Indoleamine 2,3-dioxygenase 1 (Homo sapiens, UniProt P14902)) for CC(=O)Nc1ccc(S(=O)(=O)NNc2ccc(F)c(Br)c2)cc1
Response: 5.60

Prompt: State recorded pEC50 with Indoleamine 2,3-dioxygenase 1 (Homo sapiens, UniProt P14902), entry CC(=O)Nc1ccc(S(=O)(=O)NNc2ccc(Br)c(C)c2)cc1 , no comment.
Response: 6.89

Prompt: Please report pEC50 with Indoleamine 2,3-dioxygenase 1 (Homo sapiens, UniProt P14902) for item O=C(O)c1ccc(S(=O)(=O)NNc2ccc(Br)cc2)cc1 .
Response: 6.76

Prompt: Fill in: pEC50 on Indoleamine 2,3-dioxygenase 1 (Homo sapiens, UniProt P14902), entry CC(=O)Nc1ccc(S(=O)(=O)NNc2ccc(C)cc2)cc1
Response: 5.93

Prompt: Write down measured pEC50 (Indoleamine 2,3-dioxygenase 1 (Homo sapiens, UniProt P14902)) for this compound. CC(=O)Nc1ccc(S(=O)(=O)NNc2ccc(Cl)c(F)c2)cc1
Response: 7.08

Prompt: Report value: pEC50, system: Indoleamine 2,3-dioxygenase 1 (Homo sapiens, UniProt P14902), compound: CC(=O)Nc1ccc(S(=O)(=O)NNc2ccc(Br)c(F)c2)cc1
Response: 6.73

----------
# pIC50 listing for each entry below
- TARGET ENTITY: UniProt:P14902
- ASSAY PROTOCOL: Inhibition of human recombinant IDO expressed in Escherichia coli using N-formylkynurenine as substrate incubated for 1 hr prior to NaOH addition measured after 4 hrs by spectrophotometry
The value called pIC50 is obtained by taking minus log10 of the concentration in mol/L.

{"columns": ["CHEM SMILES", "VALUE MEASURED"],
 "data": [
  ["COc1ccc(S(=O)(=O)NNc2ccc(Br)cc2)cc1", 5.84],
  ["CC(=O)Nc1ccc(S(=O)(=O)NNc2ccc(Br)c(F)c2)cc1", 6.69]
]}

Prompt: Give the reported value of pIC50 for this record: CC(=O)Nc1ccc(S(=O)(=O)NNc2cccc(Br)c2)cc1
Response: 6.59

----------
Recorded EC50, one value per entry.
- TARGET ENTITY: Indoleamine 2,3-dioxygenase 1 (Homo sapiens)
- ASSAY PROTOCOL: Inhibition of IDO in human HeLa cells after 24 hrs by spectrophotometry
Supply the numeric figure in nM, leaving out any unit text.

These recorded examples may help you get a feel for the data.
{"columns": ["CHEM SMILES", "UNIT OF MEASUREMENT", "EC50"],
 "data": [
  ["Cc1cccc(NNS(=O)(=O)c2ccc(Oc3ccc(C(F)(F)F)cn3)cc2)c1", "nM", 296],
  ["CC(=O)Nc1ccc(S(=O)(=O)NNc2cc(Cl)cc(Cl)c2)cc1", "nM", 508]
]}

Prompt: Write down measured EC50 (Indoleamine 2,3-dioxygenase 1 (Homo sapiens)) for this compound. CC(=O)Nc1ccc(S(=O)(=O)NNc2ccc(Cl)c(Cl)c2)cc1
Response: 350

Prompt: // fetch EC50; item: CC(=O)Nc1ccc(S(=O)(=O)NNc2cc(F)cc(F)c2)cc1 ; system: Indoleamine 2,3-dioxygenase 1 (Homo sapiens)
Response: 2230

----------
- TARGET ENTITY: UniProt:P14902
- ASSAY PROTOCOL: Inhibition of human recombinant IDO expressed in Escherichia coli using N-formylkynurenine as substrate incubated for 1 hr prior to NaOH addition measured after 4 hrs by spectrophotometry
TEST READOUT: IC50 (nM)
Numbers only; they are read as nM.

Worked cases, answers included:
{"columns": ["CHEM SMILES", "IC50 [nM]"],
 "data": [
  ["CC(=O)Nc1ccc(S(=O)(=O)NNc2cccc(C)c2)cc1", 49],
  ["CC(=O)Nc1ccc(S(=O)(=O)NNc2ccc(C#N)cc2)cc1", 5670],
  ["O=C(O)COc1ccc(S(=O)(=O)NNc2ccc(Br)cc2)cc1", 125]
]}

Prompt: Give reported IC50 value for CC(=O)Nc1ccc(S(=O)(=O)NN(C)c2ccc(Br)cc2)cc1
Response: 4050

----------
- TARGET ENTITY: UniProtKB P14902
- ASSAY PROTOCOL: Inhibition of human recombinant IDO expressed in Escherichia coli using N-formylkynurenine as substrate incubated for 1 hr prior to NaOH addition measured after 4 hrs by spectrophotometry
Catalogue of pIC50 readings, one per entry.
On this scale, pIC50 is minus log10 of a concentration expressed in M (mol/L).

Study these solved cases before continuing.
{"columns": ["CHEM SMILES", "pIC50"],
 "data": [
  ["CC(=O)Nc1ccc(S(=O)(=O)NNc2ccc(Cl)c(F)c2)cc1", 6.71],
  ["CC(=O)Nc1ccc(S(=O)(=O)NNc2ccc(Br)cc2)cc1", 6.89],
  ["Cc1cccc(NNS(=O)(=O)c2ccc(C#N)cc2)c1", 7.23],
  ["N#Cc1ccc(S(=O)(=O)NNc2ccc(Br)cc2)cc1", 6.75],
  ["O=S(=O)(CCc1ccccc1)NNc1ccccc1", 6.78]
]}

Read the next record carefully.
Prompt: Give pIC50; test system UniProtKB P14902; compound O=S(=O)(NNc1ccc(Br)cc1)c1ccc(Br)cc1
Response: 7.07
